IC50, inhibition of IFN-γ release, KG-1 cells, Hu IL-18 (1 nM) listing for selected binders.
- Subject Of Test: T1, Recombinant human IL-18 (human, UniProt Q14116 37-193)
- T1 sequence: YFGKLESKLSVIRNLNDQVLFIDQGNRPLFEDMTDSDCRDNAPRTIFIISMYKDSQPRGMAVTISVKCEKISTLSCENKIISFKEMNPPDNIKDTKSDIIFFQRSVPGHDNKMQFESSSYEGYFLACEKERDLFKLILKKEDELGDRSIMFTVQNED
- Assay Info: cell-based or functional assay
Readout Name: IC50, inhibition of IFN-γ release, KG-1 cells, Hu IL-18 (1 nM)

>  <Binder>
MOR08775 (antibody, human IgG1, lambda, V domains shown, also called MOR8775) VH: QVQLVQSGAEVKKPGSSVKVSCKASGGTFNSYAISWVRQAPGQGLEWMGGIIPIYGTANYAQKFQGRVTITADESTSTAYMELSSLRSEDTAVYYCARAAYHPLVFDNWGQGTLVTVSS VL: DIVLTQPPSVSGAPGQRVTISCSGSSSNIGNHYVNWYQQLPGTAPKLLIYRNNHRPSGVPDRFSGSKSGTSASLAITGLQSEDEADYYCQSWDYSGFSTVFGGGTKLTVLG

>  <Unit Label>
nM

>  <Recorded Measurement>
68

$$$$
>  <Binder>
MOR09465 (antibody, human IgG1, lambda, L234A L235A, V domains shown, also called MOR9465) VH: EVQLVQSGAEVKKPGSSVKVSCKASGGTFNSYAISWVRQAPGQGLEWMGNIIPHYGFAYYAQKFQGRVTITADESTSTAYMELSSLRSEDTAVYYCARAAYHPLVFDNWGQGTLVTVSS VL: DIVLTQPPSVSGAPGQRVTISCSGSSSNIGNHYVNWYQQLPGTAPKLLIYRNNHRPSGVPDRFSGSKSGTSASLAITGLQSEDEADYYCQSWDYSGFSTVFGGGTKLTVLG

>  <Unit Label>
nM

>  <Recorded Measurement>
0.3

$$$$
>  <Binder>
MOR10502 (antibody, human IgG1, lambda, L234A L235A, V domains shown, also called MOR010502) VH: EVQLQESGPGLVKPGETLSLTCTVSGGSISTGSYYWNWIRQAPGKGLEWIGEIHGHGFTFYNPSLKSRVTISVDTSKNQFSLKLSSVTAADTAVYYCARTTRYWMSHILAYGMDYWGQGTLVTVSS VL: DIVLTQPPSVSGAPGQRVTISCSGSSSNIGNHYVSWYQQLPGTAPKLLIYANTKRPSGVPDRFSGSKSGTSASLAITGLQSEDEADYYCSSYDGSQSIVFGGGTKLTVLG

>  <Unit Label>
nM

>  <Recorded Measurement>
0.4

$$$$
>  <Binder>
MOR09466 (antibody, human IgG1, lambda, L234A L235A, V domains shown, also called MOR9466) VH: EVQLVQSGAEVKKPGSSVKVSCKASGGTFNSYAISWVRQAPGQGLEWMGNIIPYSGFAYYAQKFQGRVTITADESTSTAYMELSSLRSEDTAVYYCARAAYHPLVFDNWGQGTLVTVSS VL: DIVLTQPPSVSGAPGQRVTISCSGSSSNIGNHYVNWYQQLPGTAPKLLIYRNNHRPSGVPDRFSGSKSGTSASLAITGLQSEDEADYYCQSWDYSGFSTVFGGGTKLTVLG

>  <Unit Label>
nM

>  <Recorded Measurement>
0.4

$$$$
>  <Binder>
Recombinant human IL-18 Binding Protein-IgG1 Fc (Fc fusion, UniProt O95998 31-194, looked up, not shown: a dimerising Fc or GST) TPVSQTTTAATASVRSTKDPCPSQPPVFPAAKQCPALEVTWPEVEVPLNGTLSLSCVACSRFPNFSILYWLGNGSFIEHLPGRLWEGSTSRERGSTGTQLCKALVLEQLTPALHSTNFSCVLVDPEQVVQRHVVLAQLWAGLRATLPPTQEALPSSHSSPQQQG

>  <Unit Label>
nM

>  <Recorded Measurement>
0.3

$$$$
>  <Binder>
MOR09441 (antibody, human IgG1, lambda, L234A L235A, V domains shown, also called MOR9441) VH: EVQLVQSGAEVKKPGSSVKVSCKASGGTFNSYAISWVRQAPGQGLEWMGWINPFYIGETFYAQKFQGRVTITADESTSTAYMELSSLRSEDTAVYYCARAAYHPLVFDNWGQGTLVTVSS VL: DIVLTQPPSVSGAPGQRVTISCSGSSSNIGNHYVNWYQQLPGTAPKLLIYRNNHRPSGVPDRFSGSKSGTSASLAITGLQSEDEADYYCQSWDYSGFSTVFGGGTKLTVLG

>  <Unit Label>
nM

>  <Recorded Measurement>
0.6

$$$$
>  <Binder>
MOR10497 (antibody, human IgG1, lambda, L234A L235A, V domains shown, also called MOR010497) VH: EVQLQESGPGLVKPGETLSLTCTVSGGSISTGSYYWNWIRQAPGKGLEWIGEIQSPGYTFYNPSLKSRVTISVDTSKNQFSLKLSSVTAADTAVYYCARTTRYWMSHILAYGMDYWGQGTLVTVSS VL: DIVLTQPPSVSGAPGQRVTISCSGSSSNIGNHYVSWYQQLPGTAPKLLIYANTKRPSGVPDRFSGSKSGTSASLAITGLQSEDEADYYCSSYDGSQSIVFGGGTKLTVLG

>  <Unit Label>
nM

>  <Recorded Measurement>
0.3

$$$$
>  <Binder>
MOR10222_E1Q_N30S_M54I (antibody, human IgG1, lambda, L234A L235A, V domains shown) VH: QVQLVQSGAEVKKPGSSVKVSCKASGGTFSSYAISWVRQAPGQGLEWMGNIIPITGQTYYAQKFQGRVTITADESTSTAYMELSSLRSEDTAVYYCARAAYHPLVFDNWGQGTLVTVSS VL: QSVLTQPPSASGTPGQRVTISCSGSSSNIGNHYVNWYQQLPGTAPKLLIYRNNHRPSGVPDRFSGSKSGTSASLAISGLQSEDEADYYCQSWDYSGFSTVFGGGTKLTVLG

>  <Unit Label>
nM

>  <Recorded Measurement>
4.21

$$$$
>  <Binder>
MOR08776 (antibody, human IgG1, lambda, V domains shown, also called MOR8776) VH: QVQLQESGPGLVKPGETLSLTCTVSGGSISTGSYYWNWIRQAPGKGLEWIGEINHMGITYYNPSLKGRVTISVDTSKNQFSLKLSSVTAEDTAVYYCARTTRYWMSHILAYGMDYWGQGTLVTVSS VL: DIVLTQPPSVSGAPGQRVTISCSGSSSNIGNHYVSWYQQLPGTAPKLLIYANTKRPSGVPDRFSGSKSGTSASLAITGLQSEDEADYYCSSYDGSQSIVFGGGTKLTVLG

>  <Unit Label>
nM

>  <Recorded Measurement>
18

$$$$
>  <Binder>
MOR10579 (antibody, human IgG1, lambda, L234A L235A, V domains shown) VH: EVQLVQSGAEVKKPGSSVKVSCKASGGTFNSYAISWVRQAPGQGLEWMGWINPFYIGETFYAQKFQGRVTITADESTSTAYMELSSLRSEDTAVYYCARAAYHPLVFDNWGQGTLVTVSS VL: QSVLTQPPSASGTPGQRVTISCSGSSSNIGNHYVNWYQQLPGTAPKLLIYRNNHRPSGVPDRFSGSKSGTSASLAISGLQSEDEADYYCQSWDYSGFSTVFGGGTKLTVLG

>  <Unit Label>
nM

>  <Recorded Measurement>
0.8

$$$$
>  <Binder>
MOR10501 (antibody, human IgG1, lambda, L234A L235A, V domains shown, also called MOR010501) VH: EVQLQESGPGLVKPGETLSLTCTVSGGSISTGSYYWNWIRQAPGKGLEWIGEIWHSGPTFYNPSLKSRVTISVDTSKNQFSLKLSSVTAADTAVYYCARTTRYWMSHILAYGMDYWGQGTLVTVSS VL: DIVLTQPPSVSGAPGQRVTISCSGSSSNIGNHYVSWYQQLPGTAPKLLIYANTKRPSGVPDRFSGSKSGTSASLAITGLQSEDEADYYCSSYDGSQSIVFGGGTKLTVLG

>  <Unit Label>
nM

>  <Recorded Measurement>
0.3

$$$$
